Listed next: entries and their corresponding Ki.
Target: Bcl-2 protein (Homo sapiens, UniProt P10415, DELINS35-91DVEENRTEAPEGTESE, form not given)
Construct: fused on or other part: Bcl-xL (Q07817) residues 29-44 stand in place of Bcl-2's own unstructured loop 35-91; The C-terminal membrane anchor (208-239) is absent
Sequence (P10415 with tags, fused parts or gaps with the stated changes): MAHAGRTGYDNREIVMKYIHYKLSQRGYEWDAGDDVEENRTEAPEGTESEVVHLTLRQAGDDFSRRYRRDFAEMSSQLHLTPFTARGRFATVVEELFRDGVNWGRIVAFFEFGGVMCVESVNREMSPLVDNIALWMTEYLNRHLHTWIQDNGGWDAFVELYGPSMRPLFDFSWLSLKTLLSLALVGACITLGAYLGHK
Assay: Bcl-2 fluorescence polarization assay (FPA) binding
Conditions: 10 nM Bcl-2 protein, 1 nM fluorescein-labeled BAX peptide, room temperature, read-out: Bcl-2 FPA 11pt Ki
reported_property: Ki (nM)

[[record]]
compound = "O=C(NS(=O)(=O)c1ccc(NCC2CCOCC2)c([N+](=O)[O-])c1)c1ccc(N2CCN(Cc3ccccc3-c3ccc(-c4nc(C56CC7CC(CC(C7)C5)C6)cs4)s3)CC2)cc1"
reported_property = "Ki"
bound_operator = "="
value_measured = 278

[[record]]
compound = "CC1(C)CCC(NCC2C3CC4CC(C3)CC2C4)C(CN2CCN(c3ccc(C(=O)NS(=O)(=O)c4ccc(NCC5CCOCC5)c([N+](=O)[O-])c4)cc3)CC2)C1 (centres unmarked)"
reported_property = "Ki"
bound_operator = ">"
value_measured = 51900

[[record]]
compound = "CC12CC(CN(c3ccc(S(=O)(=O)NC(=O)c4ccc(N5CCN(Cc6ccccc6-c6ccc(Cl)cc6)CC5)cc4)cc3)C1=O)C2"
reported_property = "Ki"
bound_operator = "="
value_measured = 47.4

[[record]]
compound = "CC1(C)C2C=C(c3ccccc3CN3CCN(c4ccc(C(=O)NS(=O)(=O)c5ccc(NCC6CCOCC6)c([N+](=O)[O-])c5)cc4)CC3)C1(C(=O)NCc1ccccc1)CC2 (centres unmarked)"
reported_property = "Ki"
bound_operator = "="
value_measured = 295

[[record]]
compound = "C[C@@H]1[C@@H](Nc2cccc(C=C3CCN(c4ccc(C(=O)NS(=O)(=O)c5ccc(NCC6CCOCC6)c([N+](=O)[O-])c5)cc4)CC3)c2)C[C@H]2C[C@@H]1C2(C)C"
reported_property = "Ki"
bound_operator = "="
value_measured = 93.2


----------
Target: Bcl-2 protein (Homo sapiens, UniProt P10415, DELINS35-91DVEENRTEAPEGTESE, form not given)
Construct: fused on or other part: Bcl-xL (Q07817) residues 29-44 stand in place of Bcl-2's own unstructured loop 35-91; The C-terminal membrane anchor (208-239) is absent
Test: Bcl-2 fluorescence polarization assay (FPA) binding
Details: 10 nM Bcl-2 protein, 1 nM fluorescein-labeled BAX peptide, room temperature, read-out: Bcl-2 FPA 11pt Ki
pKi: −log10 of the molar value.
Classify as follows. Reported pKi greater than or equal to 7: label 1. Reported pKi below: label 0.

[[record]]
molecule = "O=C(NS(=O)(=O)c1ccc(NCC2CCCCC2)c([N+](=O)[O-])c1)c1ccc(N2CCN(CC(=O)C34CC5CC(CC(C5)C3)C4)CC2)cc1"
system = "Bcl-2 protein (Homo sapiens, UniProt P10415, DELINS35-91DVEENRTEAPEGTESE, form not given)"
class_label = "label 0"

[[record]]
molecule = "CN1[C@@H]2CC[C@H]1CC(Nc1ccccc1CN1CCN(c3ccc(C(=O)NS(=O)(=O)c4ccc(NCC5CCOCC5)c([N+](=O)[O-])c4)cc3)CC1)C2 (some centres unmarked)"
system = "Bcl-2 protein (Homo sapiens, UniProt P10415, DELINS35-91DVEENRTEAPEGTESE, form not given)"
class_label = "label 1"

[[record]]
molecule = "O=C(NS(=O)(=O)c1ccc(NCC2CCCCC2)c([N+](=O)[O-])c1)c1ccc(N2C[C@@H]3C[C@H]2CN3CC23CC4CC(CC(C4)C2)C3)cc1"
system = "Bcl-2 protein (Homo sapiens, UniProt P10415, DELINS35-91DVEENRTEAPEGTESE, form not given)"
class_label = "label 0"

[[record]]
molecule = "C[C@@H]1[C@@H](Nc2cccc(-c3ccc(C(=O)NS(=O)(=O)c4ccc(NCC5CCCCC5)c([N+](=O)[O-])c4)cc3)c2)C[C@H]2C[C@@H]1C2(C)C"
system = "Bcl-2 protein (Homo sapiens, UniProt P10415, DELINS35-91DVEENRTEAPEGTESE, form not given)"
class_label = "label 0"

[[record]]
molecule = "O=C(NS(=O)(=O)c1ccc(NCC2CCOCC2)c([N+](=O)[O-])c1)c1ccc(N2CCN(Cc3ccccc3N(C(=O)CCc3ccccc3)C3CC4CC3C3CCCC43)CC2)cc1 (centres unmarked)"
system = "Bcl-2 protein (Homo sapiens, UniProt P10415, DELINS35-91DVEENRTEAPEGTESE, form not given)"
class_label = "label 1"

[[record]]
molecule = "CC1(C)[C@H]2CC=C(c3ccccc3CN3CCN(c4ccc(C(=O)NS(=O)(=O)c5ccc(NCC6CCOCC6)c([N+](=O)[O-])c5)cc4)CC3)[C@@H]1C2"
system = "Bcl-2 protein (Homo sapiens, UniProt P10415, DELINS35-91DVEENRTEAPEGTESE, form not given)"
class_label = "label 1"

[[record]]
molecule = "C[C@@H]1[C@@H](N(C(=O)Cc2ccccc2)C2CCN(c3ccc(C(=O)NS(=O)(=O)c4ccc(NCC5CCCCC5)c([N+](=O)[O-])c4)cc3)CC2)C[C@H]2C[C@@H]1C2(C)C"
system = "Bcl-2 protein (Homo sapiens, UniProt P10415, DELINS35-91DVEENRTEAPEGTESE, form not given)"
class_label = "label 1"

[[record]]
molecule = "CC1(C)[C@H]2C=C(c3ccccc3CN3CCN(c4ccc(C(=O)NS(=O)(=O)c5ccc(NCC6CCOCC6)c([N+](=O)[O-])c5)cc4)CC3)[C@]1(C)CC2"
system = "Bcl-2 protein (Homo sapiens, UniProt P10415, DELINS35-91DVEENRTEAPEGTESE, form not given)"
class_label = "label 1"

[[record]]
molecule = "CC1C2CC(C=C2c2ccccc2CN2CCN(c3ccc(C(=O)NS(=O)(=O)c4ccc(NCC5CCOCC5)c([N+](=O)[O-])c4)cc3)CC2)C1(C)C (centres unmarked)"
system = "Bcl-2 protein (Homo sapiens, UniProt P10415, DELINS35-91DVEENRTEAPEGTESE, form not given)"
class_label = "label 1"

[[record]]
molecule = "CC1(C)[C@@H]2CC[C@@]1(C)CN(c1ccc(C(=O)NS(=O)(=O)c3ccc(NC4CCOCC4)c([N+](=O)[O-])c3)cc1)C2"
system = "Bcl-2 protein (Homo sapiens, UniProt P10415, DELINS35-91DVEENRTEAPEGTESE, form not given)"
class_label = "label 0"


----------
Biological target: Bcl-2 protein (Homo sapiens, UniProt P10415, DELINS35-91DVEENRTEAPEGTESE, form not given)
Construct: fused on or other part: Bcl-xL (Q07817) residues 29-44 stand in place of Bcl-2's own unstructured loop 35-91; The C-terminal membrane anchor (208-239) is absent
Experiment: Bcl-2 fluorescence polarization assay (FPA) binding
Settings: 10 nM Bcl-2 protein, 1 nM fluorescein-labeled BAX peptide, room temperature, read-out: Bcl-2 FPA 11pt Ki
reported_property: Ki

[[record]]
molecule = "O=C(NS(=O)(=O)c1ccc(NCC2CCOCC2)c([N+](=O)[O-])c1)c1ccc(N2CCN(Cc3ccccc3NC3CC4CC3C3CCCC43)CC2)cc1 (centres unmarked)"
value_measured = "39.7 nM"

[[record]]
molecule = "CC(=O)N(C1CCN(c2ccc(C(=O)NS(=O)(=O)c3ccc(NCC4CCCCC4)c([N+](=O)[O-])c3)cc2)CC1)[C@H]1C[C@H]2C[C@@H]([C@@H]1C)C2(C)C"
value_measured = "220 nM"

[[record]]
molecule = "C[C@@H]1[C@@H](Nc2ccc(-c3ccc(C(=O)NS(=O)(=O)c4ccc(NCC5CCCCC5)c([N+](=O)[O-])c4)cc3)cc2)C[C@H]2C[C@@H]1C2(C)C"
value_measured = "155 nM"

[[record]]
molecule = "CC1(C)[C@H]2CCC(Nc3ccccc3CN3CCN(c4ccc(C(=O)NS(=O)(=O)c5ccc(NCC6CCOCC6)c([N+](=O)[O-])c5)cc4)CC3)[C@@H]1C2 (some centres unmarked)"
value_measured = "< 20 nM"

[[record]]
molecule = "O=C(NS(=O)(=O)c1ccc(NC2CCOCC2)c([N+](=O)[O-])c1)c1ccc(N2CCN(C(=O)C3C4CC5CC(C4)CC3C5)CC2)cc1 (centres unmarked)"
value_measured = "2480 nM"


----------
Biological target: Bcl-2 protein (Homo sapiens, UniProt P10415, DELINS35-91DVEENRTEAPEGTESE, form not given)
Construct: fused on or other part: Bcl-xL (Q07817) residues 29-44 stand in place of Bcl-2's own unstructured loop 35-91; The C-terminal membrane anchor (208-239) is absent
Assay: Bcl-2 fluorescence polarization assay (FPA) binding
Conditions: 10 nM Bcl-2 protein, 1 nM fluorescein-labeled BAX peptide, room temperature, read-out: Bcl-2 FPA 11pt Ki
pKi: −log10 of the molar value.
reported_property: pKi

[[record]]
compound = "O=C(NS(=O)(=O)c1ccc(NCC2CCCCC2)c([N+](=O)[O-])c1)c1ccc(N2CCN(CCC34CC5CC(CC(C5)C3)C4)CC2)cc1 [Example 58]"
system = "Bcl-2 protein (Homo sapiens, UniProt P10415, DELINS35-91DVEENRTEAPEGTESE, form not given)"
bound_operator = "<"
value_measured = 4.73

[[record]]
compound = "C[C@H]1[C@H]2C[C@H](CC2Nc2ccccc2CN2CCN(c3ccc(C(=O)NS(=O)(=O)c4ccc(NCC5CCOCC5)c([N+](=O)[O-])c4)cc3)CC2)C1(C)C (some centres unmarked) [Example 17]"
system = "Bcl-2 protein (Homo sapiens, UniProt P10415, DELINS35-91DVEENRTEAPEGTESE, form not given)"
bound_operator = "="
value_measured = 7.52

[[record]]
compound = "C[C@@H]1[C@@H](N(Cc2ccc(-c3ccc(C(=O)NS(=O)(=O)c4ccc(NCC5CCCCC5)c([N+](=O)[O-])c4)cc3)cc2)C(=O)CCc2ccccc2)C[C@H]2C[C@@H]1C2(C)C [Example 60]"
system = "Bcl-2 protein (Homo sapiens, UniProt P10415, DELINS35-91DVEENRTEAPEGTESE, form not given)"
bound_operator = "="
value_measured = 6.30

[[record]]
compound = "C[C@@H]1[C@H]2C[C@@H](C[C@H]1Nc1ccc(S(=O)(=O)NC(=O)c3ccc(N4CCN(Cc5ccccc5-c5ccc(Cl)cc5)CC4)cc3)cc1[N+](=O)[O-])C2(C)C [Example 1]"
system = "Bcl-2 protein (Homo sapiens, UniProt P10415, DELINS35-91DVEENRTEAPEGTESE, form not given)"
bound_operator = "="
value_measured = 6.76

[[record]]
compound = "O=C(NS(=O)(=O)c1ccc(NCC2CCOCC2)c([N+](=O)[O-])c1)c1ccc(N2CCN(Cc3ccccc3-c3ccc(C(=O)NC4CCCCCCC4)o3)CC2)cc1 [Example 29]"
system = "Bcl-2 protein (Homo sapiens, UniProt P10415, DELINS35-91DVEENRTEAPEGTESE, form not given)"
bound_operator = "="
value_measured = 6.45

[[record]]
compound = "O=C(NS(=O)(=O)c1ccc(NC2CCOCC2)c([N+](=O)[O-])c1)c1ccc(N2CCC(NC(=O)C34CC5CC(CC(C5)C3)C4)CC2)cc1 [Example 83]"
system = "Bcl-2 protein (Homo sapiens, UniProt P10415, DELINS35-91DVEENRTEAPEGTESE, form not given)"
bound_operator = "<"
value_measured = 5.20

[[record]]
compound = "O=C(NS(=O)(=O)c1ccc(NCC2CCOCC2)c([N+](=O)[O-])c1)c1ccc(N2CCN(Cc3ccccc3N3CC4CCC(CC4)C3)CC2)cc1 [Example 33]"
system = "Bcl-2 protein (Homo sapiens, UniProt P10415, DELINS35-91DVEENRTEAPEGTESE, form not given)"
bound_operator = ">"
value_measured = 7.70

[[record]]
compound = "CC1(C)C2C=C(c3ccccc3CN3CCN(c4ccc(C(=O)NS(=O)(=O)c5ccc(NCC6CCOCC6)c([N+](=O)[O-])c5)cc4)CC3)C1(C(=O)NCC13CC4CC(CC(C4)C1)C3)CC2 (centres unmarked) [Example 37]"
system = "Bcl-2 protein (Homo sapiens, UniProt P10415, DELINS35-91DVEENRTEAPEGTESE, form not given)"
bound_operator = "="
value_measured = 6.78

[[record]]
compound = "O=C(NS(=O)(=O)c1ccc(NC2CCOCC2)c([N+](=O)[O-])c1)c1ccc(NCC23CC4CC(CC(C4)C2)C3)cc1 [Example 82]"
system = "Bcl-2 protein (Homo sapiens, UniProt P10415, DELINS35-91DVEENRTEAPEGTESE, form not given)"
bound_operator = "="
value_measured = 5.66

[[record]]
compound = "CC1(C)C2C=C(c3ccccc3CN3CCN(c4ccc(C(=O)NS(=O)(=O)c5ccc(NCC6CCOCC6)c([N+](=O)[O-])c5)cc4)CC3)C1(C(=O)O)CC2 (centres unmarked) [Example 39]"
system = "Bcl-2 protein (Homo sapiens, UniProt P10415, DELINS35-91DVEENRTEAPEGTESE, form not given)"
bound_operator = "="
value_measured = 5.54

[[record]]
compound = "CC1(C)[C@H]2C=C(c3ccccc3C=C3CCN(c4ccc(C(=O)NS(=O)(=O)c5ccc(NCC6CCOCC6)c([N+](=O)[O-])c5)cc4)CC3)[C@]1(C)CC2 [Example 61]"
system = "Bcl-2 protein (Homo sapiens, UniProt P10415, DELINS35-91DVEENRTEAPEGTESE, form not given)"
bound_operator = ">"
value_measured = 7.70

